Biological target: T1, TX1BP3, O14907
T1 sequence (O14907 10-122, limits assumed, looked up): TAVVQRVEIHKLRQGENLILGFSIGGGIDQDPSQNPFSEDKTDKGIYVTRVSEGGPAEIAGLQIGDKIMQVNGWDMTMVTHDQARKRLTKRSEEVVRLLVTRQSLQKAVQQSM
Experiment: holdup assay
Parameters: key: below the threshold = too weak to quantify, mostly under pKd 3.1 to 4
Conditions: plain residues with an end cap or a label only (N-terminal biotin on a linker: ado-ado)

>  <Binder>
NTANRRTTPV [CACNG2, Q9Y698]

>  <pKd>
4.76

$$$$
>  <Binder>
NVYGIESVKI [GRIA2, P42262]

>  <pKd>
below the threshold

$$$$
>  <Binder>
QRPYRRGSEI [KCNJ18, B7U540]

>  <pKd>
below the threshold

$$$$
>  <Binder>
GEDRSPPTAL [MKNK1, Q9BUB5]

>  <pKd>
below the threshold

$$$$
>  <Binder>
PSVGSKKTVL [REELD1, A0A1B0GV85]

>  <pKd>
below the threshold

$$$$
>  <Binder>
LKDDELKTKL [SLCO1A2, P46721]

>  <pKd>
below the threshold

$$$$
>  <Binder>
SVTSERETNI [SLC16A7, O60669]

>  <pKd>
below the threshold

$$$$
>  <Binder>
APIAGFSSFV [SDK2, Q58EX2]

>  <pKd>
4.84

$$$$
>  <Binder>
RFQQRMQTHV [KIRREL1, Q96J84]

>  <pKd>
4.85

$$$$
